Origin of the recorded values: ChEMBL document CHEMBL4311972

Below is a list of entries, each paired with its recorded inhibition at 2 h, 10 µM value.
Biological target: hERG (KCNH2) (Homo sapiens)
Sequence (Q12809 whole entry): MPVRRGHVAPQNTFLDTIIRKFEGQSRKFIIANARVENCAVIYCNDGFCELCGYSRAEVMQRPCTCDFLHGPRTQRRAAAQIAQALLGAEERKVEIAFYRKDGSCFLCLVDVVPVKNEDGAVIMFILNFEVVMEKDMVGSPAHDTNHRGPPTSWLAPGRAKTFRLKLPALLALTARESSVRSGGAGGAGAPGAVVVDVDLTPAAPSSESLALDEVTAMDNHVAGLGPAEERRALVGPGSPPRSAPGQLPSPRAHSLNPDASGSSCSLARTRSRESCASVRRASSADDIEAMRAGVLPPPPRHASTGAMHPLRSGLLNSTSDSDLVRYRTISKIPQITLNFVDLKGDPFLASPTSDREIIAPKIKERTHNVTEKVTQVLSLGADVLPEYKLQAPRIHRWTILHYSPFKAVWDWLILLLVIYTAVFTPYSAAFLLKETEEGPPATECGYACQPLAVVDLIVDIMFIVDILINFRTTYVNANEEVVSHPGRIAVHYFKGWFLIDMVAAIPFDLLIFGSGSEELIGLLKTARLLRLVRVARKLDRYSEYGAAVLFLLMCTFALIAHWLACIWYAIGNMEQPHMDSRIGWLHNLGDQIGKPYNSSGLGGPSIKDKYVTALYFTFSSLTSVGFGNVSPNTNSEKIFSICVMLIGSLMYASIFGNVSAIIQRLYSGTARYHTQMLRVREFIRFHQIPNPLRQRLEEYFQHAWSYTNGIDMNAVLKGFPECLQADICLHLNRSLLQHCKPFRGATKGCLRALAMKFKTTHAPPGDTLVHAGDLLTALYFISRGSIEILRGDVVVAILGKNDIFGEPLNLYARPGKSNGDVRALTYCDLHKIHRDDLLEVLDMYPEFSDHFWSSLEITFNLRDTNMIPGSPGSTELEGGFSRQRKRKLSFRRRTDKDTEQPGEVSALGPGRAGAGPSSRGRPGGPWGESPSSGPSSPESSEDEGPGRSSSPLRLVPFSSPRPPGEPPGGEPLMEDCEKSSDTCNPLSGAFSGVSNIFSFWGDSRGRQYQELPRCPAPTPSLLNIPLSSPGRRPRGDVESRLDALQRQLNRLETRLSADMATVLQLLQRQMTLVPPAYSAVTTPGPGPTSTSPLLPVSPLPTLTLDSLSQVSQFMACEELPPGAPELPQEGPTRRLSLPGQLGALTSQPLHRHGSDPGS
Test: Inhibition of human ERG at 10 uM incubated for 2 hrs by fluorescence polarization assay relative to control
Write the value in % as a bare number.

Below are worked cases with known answers.
>>> result("COc1ccc2c(=O)c(O)c(-c3ccc4c(c3)OCO4)oc2c1")
9.49
>>> result("O=c1c(O)c(-c2c[nH]c3ccccc23)oc2ccc(O)cc12")
53.2
>>> result("COc1ccc2oc(-c3c[nH]c4ccccc34)c(O)c(=O)c2c1")
41.2
>>> result("Cc1csc(-c2oc3ccc(O)cc3c(=O)c2O)c1")
16.1
>>> result("COc1ccc2c(=O)c(O)c(-c3sccc3C)oc2c1")
-3.84
>>> result("COc1ccc2oc(-c3csc4ccccc34)c(O)c(=O)c2c1")
32

Recorded inhibition at 2 h, 10 µM of Cc1ccsc1-c1oc2cc(O)ccc2c(=O)c1O , please.
-1.79

Recorded inhibition at 2 h, 10 µM of O=c1c(O)c(-c2ccco2)oc2ccc(O)cc12 , please.
6.43

Recorded inhibition at 2 h, 10 µM of CCCCC(=O)Oc1c(-c2csc3ccccc23)oc2ccc(OC)cc2c1=O , please.
1.12

Recorded inhibition at 2 h, 10 µM of O=c1c(O)c(-c2csc3ccccc23)oc2cc(Cl)ccc12 , please.
16.3

Recorded inhibition at 2 h, 10 µM of O=c1c(O)c(-c2csc3ccccc23)oc2cc(F)ccc12 , please.
11.6

Recorded inhibition at 2 h, 10 µM of CCOc1c(-c2csc3ccccc23)oc2ccc(OC)cc2c1=O , please.
11.8

Recorded inhibition at 2 h, 10 µM of Cc1ccc2oc(-c3csc4ccccc34)c(O)c(=O)c2c1 , please.
-21.6

Recorded inhibition at 2 h, 10 µM of COc1ccc2oc(-c3ccc4ncccc4c3)c(O)c(=O)c2c1 , please.
16.1

Recorded inhibition at 2 h, 10 µM of Cc1csc(-c2oc3ccc(C)cc3c(=O)c2O)c1 , please.
13.2

Recorded inhibition at 2 h, 10 µM of COc1ccc2oc(-c3csc4ccccc34)c(OC(=O)N(C)C)c(=O)c2c1 , please.
-17.9

Recorded inhibition at 2 h, 10 µM of COc1ccc2oc(-c3cn(C)c4ccccc34)c(O)c(=O)c2c1 , please.
12.7

Recorded inhibition at 2 h, 10 µM of O=c1c(O)c(-c2csc3ccccc23)oc2ccc(F)cc12 , please.
-29.6

Recorded inhibition at 2 h, 10 µM of COc1ccc2oc(-c3cc(C)cs3)c(O)c(=O)c2c1 , please.
6.55
